# protocol: Pharmacokinetics after iv and oral dosing
# Assay type: in vivo, BALB/c mice
# condition-description: mouse, plasma; po 120 mg/kg, male BALB/c mice; read-out: F
recorded-endpoint: bioavailability (%)
API: value field is a number in %; no unit string.

[Q] Please list bioavailability recorded for the molecule Cc1cc(C#N)cc(C)c1Oc1nc(NC2CCN(Cc3ccc(S(N)(=O)=O)cc3)CC2)nc2ccsc12 [K-5a2]
[A] 9.05

---

# protocol: Cytotoxicity, MTT assay, H9/HIV-1IIIB cells
# Assay type: cell-based
# condition-description: human, three days, read-out: CC50 (Mean ± SD)
recorded-endpoint: CC50 at 3 days (µM)
API: value field is a number in µM; no unit string.

# molecule, measured-result
data = [
    ("Cc1cc(C#N)cc(C)c1Oc1nc(Nc2ccc(C#N)cc2)nc(N)c1Br [ETR, etravirine, reference compound]", 30.4),
]

[Q] Please list CC50 at 3 days recorded for the molecule Cc1cc(C#N)cc(C)c1Oc1nc(NC2CCN(Cc3ccc(S(N)(=O)=O)cc3)CC2)nc2ccsc12
[A] 28.1

---

# protocol: Pharmacokinetics after iv and oral dosing
# Type: in vivo, BALB/c mice
# condition-description: male, BALB/c, mouse, plasma, iv, 2 mg/kg, iv 2 mg/kg, male BALB/c mice; read-out: Cmax
recorded-endpoint: Cmax (ng/mL)
API: value field is a number in ng/mL; no unit string.

[Q] Please list Cmax recorded for the compound Cc1cc(C#N)cc(C)c1Oc1nc(NC2CCN(Cc3ccc(S(N)(=O)=O)cc3)CC2)nc2ccsc12
[A] 1080

---

# protocol: Pharmacokinetics after iv and oral dosing
# Type: in vivo, BALB/c mice
# condition-description: mouse, plasma; iv 2 mg/kg, male BALB/c mice; read-out: Tmax
recorded-endpoint: Tmax (min)
API: value field is a number in min; no unit string.

[Q] Please list Tmax recorded for the compound Cc1cc(C#N)cc(C)c1Oc1nc(NC2CCN(Cc3ccc(S(N)(=O)=O)cc3)CC2)nc2ccsc12 [K-5a2]
[A] 1.98

---

# protocol: Pharmacokinetics after iv and oral dosing
# Assay type: in vivo, BALB/c mice
# condition-description: mouse, plasma; po 120 mg/kg, female BALB/c mice; read-out: Tmax
recorded-endpoint: Tmax (min)
API: value field is a number in min; no unit string.

[Q] Please list Tmax recorded for the compound Cc1cc(C#N)cc(C)c1Oc1nc(NC2CCN(Cc3ccc(S(N)(=O)=O)cc3)CC2)nc2ccsc12 [K-5a2]
[A] 30

---

# protocol: Pharmacokinetics after iv and oral dosing
# Type: in vivo, BALB/c mice
# condition-description: female, BALB/c, mouse, plasma, po, 30 mg/kg, po 30 mg/kg, female BALB/c mice; read-out: Cmax
recorded-endpoint: Cmax (ng/mL)
API: value field is a number in ng/mL; no unit string.

[Q] Please list Cmax recorded for the compound Cc1cc(C#N)cc(C)c1Oc1nc(NC2CCN(Cc3ccc(S(N)(=O)=O)cc3)CC2)nc2ccsc12
[A] 416

---

# protocol: Pharmacokinetics after iv and oral dosing
# Assay type: in vivo, BALB/c mice
# condition-description: mouse, plasma; iv 2 mg/kg, female BALB/c mice; read-out: t1/2z (converted)
recorded-endpoint: half-life (h)
API: value field is a number in h; no unit string.

[Q] Please list half-life recorded for the molecule Cc1cc(C#N)cc(C)c1Oc1nc(NC2CCN(Cc3ccc(S(N)(=O)=O)cc3)CC2)nc2ccsc12
[A] 2.35
